Tested on: VchCAST RNA-guided transposition machinery (E. coli BL21(DE3) host, lacZ target)
Assay: relative integration efficiency (T-LR orientation) vs wild-type transposon end (log2 (normalized fold change)); transposon end mutated: left end; higher = more efficient transposition
quantity.name: relative integration efficiency (log2)

INSERT INTO results (seq, quantity_name, value_observed) VALUES
  ('AATGTTGTTGATGCACCCATAAATTGATATTGCATAATTATTTATAATCAGCAACTTAACCACAAAACAACCATAAAATGATAATTAACAAAAGTTGGTATTCAACTATAAAATGTGAATCGAGTATTTCAGCAAAACTACTGCAGTAAGAA', 'relative integration efficiency (log2)', -1.26),
  ('AATGTTGTTGATGCAACCATAAAGTGATATTTAATAATTATTTATAATCAGCAACTTAACCACAAAACAACCAGCGCGGTCGCGAGACACCCCACCAACGCCTGGTCGCGGGGGTGTCCGATCTGATTTCAGCAAAACTACTGCAGTAAGAA', 'relative integration efficiency (log2)', -5.07),
  ('AATGTTGTTGATGCAACCATAAAGTGATATTTAATAATTATTTATAATCAGCAACTTAACCACAAAAACCAACGCGCGGTCGCGAGAACAAAAACCAACGCCCTGTCGCGGGCTGTGAATCGAGTATTTCAGCAAAACTACTGCAGTAAGAA', 'relative integration efficiency (log2)', -4.56),
  ('AATGTTGTTGATGCACCCATAAATTGATATTGCATAATTATTTATAATCAGCAACTTAACCACAAAACACCCATAAATTGATAATTAACAAAAGTTGGTATTCAACTATAAAATGTGAATCGAGTATTTCAGCAAAACTACTGCAGTAAGAA', 'relative integration efficiency (log2)', -1.55);

* * *

Recorded relative integration efficiency (log2) for the following sequences
Test system: VchCAST RNA-guided transposition machinery (E. coli BL21(DE3) host, lacZ target)
Experiment: relative integration efficiency (T-LR orientation) vs wild-type transposon end (log2 (normalized fold change)); transposon end mutated: left end; higher = more efficient transposition
quantity.name: relative integration efficiency (log2)

INSERT INTO assay_data (seq, value_observed) VALUES
  ('AATGTTGTTGATGCAACCATAAAGTGATATTTAAGTACTGCGCGTCTGAAGTCATCTTTAAACCGAACAACCATATATTGATATCTCACAAAACAACCATAAGTTGATATTTTTGTGAATCGAGTATTTCAGCAAAACTACTGCAGTAAGAA', -3.06),
  ('AATGTTGTTGATGCAACCATAAAGTGATATTTACTTAAGCGAGTCTGTCCTTTCTGACTGTCGATCCCAACCATATATTGATATCTCACAAAACAACCATAAGTTGATATTTTTGTGAATCGAGTATTTCAGCAAAACTACTGCAGTAAGAA', -3.45),
  ('AATGTTGTTGATGCAACCATAAAGTGATATTTAATAACTTCGTATAGTATACATTATACGAAGTTATCAACCATATATTGATATCTCACAAAACAACCATAAGTTGATATTTTTGTGAATCGAGTATTTCAGCAAAACTACTGCAGTAAGAA', -4.12),
  ('AATGTTGTTGATGCAACCATAAAGTGATATTTAATAATTATTTATAATCAGCAACTTAACCACAAAACAACCATATATTGATATCTCACAAACAACCATAAGTTGATATTTTTGTGAATCGAGTATTTCAGCAAAACTACTGCAGTAAGAAA', -0.446);

* * *

Tested on: VchCAST RNA-guided transposition machinery (E. coli BL21(DE3) host, lacZ target)
Assay: relative integration efficiency (T-LR orientation) vs wild-type transposon end (log2 (normalized fold change)); transposon end mutated: right end (5 bp flank + 75 bp right end); higher = more efficient transposition
Rule: True for relative integration efficiency (log2) not less than 0.4, False for anything less.

INSERT INTO results (seq, discrete_label) VALUES
  ('ACATTTGTTGATACAACCATAAAATGATCATTACCCCCATAAATTGATAATTATCACACCCCATTTAACTATAACGCTCTGATCATAGTCAGACCAACATTGCTACGACCCGTATTCGCACCGACAC', 'True'),
  ('ACATTTGTTGATACACCCATAAATTGATATTGCCAACCATATATTGATATCTCTCACAACCATATATTGATATCTCCTCTGATCATAGTCAGACCAACATTGCTACGACCCGTATTCGCACCGACAC', 'False'),
  ('ACATTTGTCGATACAACCATAAAATGATAATTACACCCATAAATTGATCATTATCACACCCAATTTAACTATAACGCTCTGATCATAGTCAGACCAACATTGCTACGACCCGTATTCGCACCGACAC', 'True'),
  ('ACATTTGTTGATACAACCATAAAGTGATATTTACAACCATATATTGATATCTCTCACACCCATAAATTGATAATTACTCTGATCATAGTCAGACCAACATTGCTACGACCCGTATTCGCACCGACAC', 'True'),
  ('ACATTTGTTGATACACCCATAAAATGATAATTACAACCATAAATTGATAATTATCACAACCATAAATTGATATTGCCTCTGATCATAGTCAGACCAACATTGCTACGACCCGTATTCGCACCGACAC', 'False');

* * *

Tested on: VchCAST RNA-guided transposition machinery (E. coli BL21(DE3) host, lacZ target)
Test: relative integration efficiency (T-RL orientation) vs wild-type transposon end (log2 (normalized fold change)); transposon end mutated: right end (5 bp flank + 75 bp right end); higher = more efficient transposition
# binarize relative integration efficiency (log2): threshold -3 inclusive, high side 1 (yes), low side 0 (no)

INSERT INTO assay_data (seq, discrete_label) VALUES
  ('ACATTTGTTGATACAACCATAAAAGGATAATTACACCCATCAATTGATAATTATCCCACCCCATTTAACTATAACGCTCTGATCATAGTCAGACCAACATTGCTACGACCCGTATTCGCACCGACAC', '1 (yes)'),
  ('ACATTTGTTGATACAACCCTAAAATGATAATTACACCCATAAATGGATCATTATCACCCCCAATTTAACTATAACGCTCTGATCATAGTCAGACCAACATTGCTACGACCCGTATTCGCACCGACAC', '0 (no)'),
  ('ACATTTGTTGATACAACCATAAAATGATAATTACACCCATAAATTGATAATGCGAACACCCATAAATTGATATTGCCTCTGATCATAGTCAGACCAACATTGCTACGACCCGTATTCGCACCGACAC', '1 (yes)'),
  ('ACATTTGTTGATACAACCATAAAATGATTATTACACCCATAAATTGATAATTGTGACACCGAATTTAACTATAACGCTCTGATCATAGTCAGACCAACATTGCTACGACCCGTATTCGCACCGACAC', '1 (yes)');

* * *

Tested on: VchCAST RNA-guided transposition machinery (E. coli BL21(DE3) host, lacZ target)
Assay: relative integration efficiency (T-RL orientation) vs wild-type transposon end (log2 (normalized fold change)); transposon end mutated: right end (5 bp flank + 75 bp right end); higher = more efficient transposition
quantity.name: relative integration efficiency (log2)

INSERT INTO results (seq, value_observed) VALUES
  ('ACATTTGTTGATACAACCATAAAATCATAATTACCCCCATCAATTGATAATTATCACACCCAATTTAACTATAACGCTCTGATCATAGTCAGACCAACATTGCTACGACCCGTATTCGCACCGACAC', -5.12),
  ('ACATTTGTTGATACAACCATAAAATGATAATTCACCCATCAATTGATAATTATCACACCCCAATTTAACTATAACGCTCTGATCATAGTCAGACCAACATTGCTACGACCCGTATTCGCACCGACAC', -3.27),
  ('ACATTTGTTGATACAACCATAACCTGATAATTACACCCATAAATTGATAATTATCACACCCATAAATTGATATTGCCTCTGATCATAGTCAGACCAACATTGCTACGACCCGTATTCGCACCGACAC', -0.321),
  ('ACATTTGTTCATACAACCATAAAATGATAATTACACCCATAAATTGATCATTATCACCCCCAATTTAACTATAACGCTCTGATCATAGTCAGACCAACATTGCTACGACCCGTATTCGCACCGACAC', -1.59),
  ('ACATTTGTGGATACAACCATAAAATGATAATTACCACCCATACATTGATAATTATCACACCCATTTAACTATAACGCTCTGATCATAGTCAGACCAACATTGCTACGACCCGTATTCGCACCGACAC', -2.53),
  ('ACATTTGTTGATACACCCATAAATTGATAATTACACCCATAAATTGATATTGCTCACAACCATAAAGTGATATTTACTCTGATCATAGTCAGACCAACATTGCTACGACCCGTATTCGCACCGACAC', -0.813),
  ('ACATTTGTTGATACAACCATAAAATGATAATTACACCCATAAATTGATAATTCGACCACCCATAAATTGATATTGCCTCTGATCATAGTCAGACCAACATTGCTACGACCCGTATTCGCACCGACAC', -0.541),
  ('ACATTTCTGGATACAACCATAAAATGATAATTACACCCATAAATTGATAATTATCACACCCAATTTAACTATAACGCTCTGATCATAGTCAGACCAACATTGCTACGACCCGTATTCGCACCGACAC', -1.94),
  ('ACATTTGTTGATACAACCATAAAATGATAATTAATAATTATTTATAATCAGCAACTTAACCACACACCCATAAATTGATAATTATCACACCCATAAATTGATATTGCCTCTGATCATAGTCAGACCA', -3.09),
  ('ACATTTGTTGATACAACCATATATTGATATCTCCAACCATATATTGATATCTCTCACAACCATAAGTTGATATTTTCTCTGATCATAGTCAGACCAACATTGCTACGACCCGTATTCGCACCGACAC', -0.571),
  ('ACAGGGTTTGATACAACCATAAAATGATAATTACACCCATAAATTGATAATTATCACACCCATAAATTGATATTGCCTCTGATCATAGTCAGACCAACATTGCTACGACCCGTATTCGCACCGACAC', -7.26),
  ('ACATTTGTTGATACAACCATAAAGTGATATTTACAACCATAAGTTGATATTTTTCACAACCATAAAATGATAATTACTCTGATCATAGTCAGACCAACATTGCTACGACCCGTATTCGCACCGACAC', -0.0427),
  ('ACATTTGTTGATACAACCATAAAATGATAATTACACCCATAAATTGATAATTATCACACCCATAAATTGATATTCTCTGATCATAGTCAGACCAACATTGCTACGACCCGTATTCGCACCGACACTG', -0.0876),
  ('ACATTTGTTGATACACCCATAAATTGATATTGCCAACCATATATTGATATCTCTCACACCCATAAATTGATAATTACTCTGATCATAGTCAGACCAACATTGCTACGACCCGTATTCGCACCGACAC', -1.1),
  ('ACATTTGTTGATACAACCATAAAATGATAATTAATAATTATTTATAATCAGCAACTTAACCACAAACACCCATAAATTGATAATTATCAACAAACGCCCGGTCGCGGTACTCTGATCATAGTCAGAC', -3.5),
  ('ACATTTGTTGATACAACCATTTTTTGATAATTACACCCATTTTATGATAATTATCACACCCATTTTATGATATTGCCTCTGATCATAGTCAGACCAACATTGCTACGACCCGTATTCGCACCGACAC', -1.61),
  ('ACATTTGTTGATACAACCTTAAAATGATAATTACACCCTTAAATTGATAATTATCACACCCTTAAATTGATATTGCCTCTGATCATAGTCAGACCAACATTGCTACGACCCGTATTCGCACCGACAC', -1.34),
  ('ACATTTGTTCTATCAACCATAAAATGATAATTACACCCATAAATTGATAATTATCACACCCATAAATTGATATTGCCTCTGATCATAGTCAGACCAACATTGCTACGACCCGTATTCGCACCGACAC', -1.53),
  ('ACATTTGTTGATACAACCATAAGTTGATATTTTCAACCATAAGTTGATATTTTTCACAACCATAAAGTGATATTTACTCTGATCATAGTCAGACCAACATTGCTACGACCCGTATTCGCACCGACAC', 0.196),
  ('ACATTTGTTGATACAACCATAAAATGCGCCGGCCACCCATAAATTGCGCCGGCTCACACCCATAAATTGCGCGGTACTCTGATCATAGTCAGACCAACATTGCTACGACCCGTATTCGCACCGACAC', -5.16);
